The measurements presented in this section are drawn from patent US20240327525A1.

tgt: human cation-independent mannose-6-phosphate receptor on cells (human, UniProt P11717 41-2491)
Sequence (P11717 41-2491 R1619G limits assumed): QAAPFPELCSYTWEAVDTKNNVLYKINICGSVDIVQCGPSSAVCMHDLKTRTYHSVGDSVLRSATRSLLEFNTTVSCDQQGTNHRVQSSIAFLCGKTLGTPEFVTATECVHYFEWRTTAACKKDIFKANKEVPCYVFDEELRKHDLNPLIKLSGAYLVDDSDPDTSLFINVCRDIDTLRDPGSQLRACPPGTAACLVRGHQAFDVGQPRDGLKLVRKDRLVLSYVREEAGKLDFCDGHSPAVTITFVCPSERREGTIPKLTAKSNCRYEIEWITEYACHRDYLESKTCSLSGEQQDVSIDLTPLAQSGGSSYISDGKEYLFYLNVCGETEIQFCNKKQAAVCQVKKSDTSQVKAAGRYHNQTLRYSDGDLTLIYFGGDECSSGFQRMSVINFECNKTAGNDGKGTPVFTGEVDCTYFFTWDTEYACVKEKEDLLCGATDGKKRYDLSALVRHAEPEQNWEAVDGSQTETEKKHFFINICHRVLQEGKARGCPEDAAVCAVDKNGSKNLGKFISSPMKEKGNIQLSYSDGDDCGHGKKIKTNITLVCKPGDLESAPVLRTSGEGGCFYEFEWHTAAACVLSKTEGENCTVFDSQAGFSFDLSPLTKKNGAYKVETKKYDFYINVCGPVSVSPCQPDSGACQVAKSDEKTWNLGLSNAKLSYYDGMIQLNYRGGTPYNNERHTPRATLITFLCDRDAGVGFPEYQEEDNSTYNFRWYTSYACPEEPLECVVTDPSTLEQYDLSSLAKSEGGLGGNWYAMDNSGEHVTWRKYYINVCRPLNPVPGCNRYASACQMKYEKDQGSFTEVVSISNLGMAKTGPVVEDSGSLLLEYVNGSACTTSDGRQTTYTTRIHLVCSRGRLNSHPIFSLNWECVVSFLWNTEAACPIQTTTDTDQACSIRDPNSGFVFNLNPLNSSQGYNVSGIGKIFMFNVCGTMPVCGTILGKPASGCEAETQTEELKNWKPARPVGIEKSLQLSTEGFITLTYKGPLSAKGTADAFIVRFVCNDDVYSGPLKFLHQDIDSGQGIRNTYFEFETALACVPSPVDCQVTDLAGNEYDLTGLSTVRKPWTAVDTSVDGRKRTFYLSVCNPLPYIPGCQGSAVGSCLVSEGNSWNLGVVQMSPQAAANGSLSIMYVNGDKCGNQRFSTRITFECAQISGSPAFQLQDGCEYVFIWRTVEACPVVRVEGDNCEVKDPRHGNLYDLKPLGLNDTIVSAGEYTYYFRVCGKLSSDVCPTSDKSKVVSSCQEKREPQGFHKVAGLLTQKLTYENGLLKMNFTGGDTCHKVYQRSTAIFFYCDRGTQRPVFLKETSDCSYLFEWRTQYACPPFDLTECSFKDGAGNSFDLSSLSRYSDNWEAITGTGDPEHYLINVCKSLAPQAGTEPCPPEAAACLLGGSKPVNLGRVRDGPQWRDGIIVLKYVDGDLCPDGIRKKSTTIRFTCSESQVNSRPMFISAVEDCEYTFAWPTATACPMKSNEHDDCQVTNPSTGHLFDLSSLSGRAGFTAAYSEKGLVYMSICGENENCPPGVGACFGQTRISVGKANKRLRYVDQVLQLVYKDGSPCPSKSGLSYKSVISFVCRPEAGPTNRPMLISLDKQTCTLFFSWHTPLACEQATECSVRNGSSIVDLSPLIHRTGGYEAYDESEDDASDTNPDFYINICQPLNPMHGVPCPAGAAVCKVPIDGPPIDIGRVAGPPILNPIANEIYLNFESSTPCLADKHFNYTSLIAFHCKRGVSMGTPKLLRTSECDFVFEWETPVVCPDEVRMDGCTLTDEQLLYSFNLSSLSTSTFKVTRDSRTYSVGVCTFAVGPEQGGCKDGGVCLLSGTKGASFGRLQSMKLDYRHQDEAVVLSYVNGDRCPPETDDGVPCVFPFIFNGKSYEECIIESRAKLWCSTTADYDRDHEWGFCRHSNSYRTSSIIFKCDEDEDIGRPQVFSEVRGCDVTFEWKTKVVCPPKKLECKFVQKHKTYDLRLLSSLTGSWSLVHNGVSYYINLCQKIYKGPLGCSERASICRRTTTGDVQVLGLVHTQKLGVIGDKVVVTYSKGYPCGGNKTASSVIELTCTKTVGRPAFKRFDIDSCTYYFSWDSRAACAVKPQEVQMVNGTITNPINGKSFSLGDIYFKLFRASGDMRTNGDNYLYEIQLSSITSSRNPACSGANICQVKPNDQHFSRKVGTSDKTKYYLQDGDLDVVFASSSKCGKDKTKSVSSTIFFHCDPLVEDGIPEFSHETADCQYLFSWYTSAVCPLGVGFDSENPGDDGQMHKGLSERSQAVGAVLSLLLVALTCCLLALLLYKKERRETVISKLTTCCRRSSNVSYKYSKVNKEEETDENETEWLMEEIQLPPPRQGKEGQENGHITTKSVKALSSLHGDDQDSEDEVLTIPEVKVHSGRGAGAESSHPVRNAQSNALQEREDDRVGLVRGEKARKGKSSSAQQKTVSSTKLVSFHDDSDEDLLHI
experimental details: cell-based or functional assay
List of internalisation rate (live-cell imaging of AF488-VHH on MCF7 cells) values.
State the answer as a number, implicitly in summed AF-voxels/minute.

Examples with their reported internalisation rate (live-cell imaging of AF488-VHH on MCF7 cells) follow.
anti-CI-M6PR VHH1 (VHH) VHH: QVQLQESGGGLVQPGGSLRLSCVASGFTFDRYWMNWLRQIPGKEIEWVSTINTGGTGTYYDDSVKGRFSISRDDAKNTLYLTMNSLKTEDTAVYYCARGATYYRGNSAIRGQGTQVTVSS : 1.38e+06
anti-CI-M6PR VHH5 (VHH) VHH: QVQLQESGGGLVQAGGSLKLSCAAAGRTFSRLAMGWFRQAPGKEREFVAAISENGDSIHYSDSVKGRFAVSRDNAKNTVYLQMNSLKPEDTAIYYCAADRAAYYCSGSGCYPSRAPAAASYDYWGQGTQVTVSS : 687000
anti-CI-M6PR VHH8 (VHH, Purified by IMAC, so tagged; Labelled with Alexa Fluor 488 (NHS ester) in the imaging experiments) VHH: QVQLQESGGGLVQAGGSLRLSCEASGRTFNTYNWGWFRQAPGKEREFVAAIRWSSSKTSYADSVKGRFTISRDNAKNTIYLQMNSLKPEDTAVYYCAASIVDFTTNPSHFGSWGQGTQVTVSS : 673000

Complete the entry with internalisation rate (live-cell imaging of AF488-VHH on MCF7 cells) for anti-CI-M6PR VHH7 (VHH, Purified by IMAC, so tagged; Labelled with Alexa Fluor 488 (NHS ester) in the imaging experiments) VHH: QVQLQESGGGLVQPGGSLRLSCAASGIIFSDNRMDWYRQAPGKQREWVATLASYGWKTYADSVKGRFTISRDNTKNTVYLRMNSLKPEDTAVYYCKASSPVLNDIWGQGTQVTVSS 1.26e+06
